Entry source: the supplement of paper PMC6555819

Test system: PPARg:RXRa IVT, anti-PPARg (NR concentration 270 nM, RXRa partner concentration 90 nM)
Assay: PBM binding z-score (relative to random genomic background probes); higher = stronger binding; sequences stand for … in GC…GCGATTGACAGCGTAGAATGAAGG
Where PBM binding z-score equals or exceeds 3, the correct label is satisfied; where it does not, the label is not satisfied.

Illustrative cases are given below, each with its answer.
[[record]]
sequence_text = "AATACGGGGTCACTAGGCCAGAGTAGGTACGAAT"
discrete_label = "satisfied"

[[record]]
sequence_text = "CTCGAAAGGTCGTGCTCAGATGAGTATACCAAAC"
discrete_label = "not satisfied"

[[record]]
sequence_text = "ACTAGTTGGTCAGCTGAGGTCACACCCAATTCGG"
discrete_label = "not satisfied"

[[record]]
sequence_text = "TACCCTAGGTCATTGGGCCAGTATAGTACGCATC"
discrete_label = "satisfied"

[[record]]
sequence_text = "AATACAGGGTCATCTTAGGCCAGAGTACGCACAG"
discrete_label = "satisfied"


Qu. Check this sequence for PBM binding z-score at or above 3: `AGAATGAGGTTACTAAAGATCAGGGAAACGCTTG`
Ans. not satisfied

Qu. Please check the record `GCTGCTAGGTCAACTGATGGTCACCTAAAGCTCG` and state if its PBM binding z-score is at or above 3.
Ans. satisfied

Qu. Does the reported PBM binding z-score for `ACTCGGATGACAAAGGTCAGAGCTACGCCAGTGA` fall at or above the 3 mark?
Ans. not satisfied

Qu. Confirm if PBM binding z-score reported for the sequence `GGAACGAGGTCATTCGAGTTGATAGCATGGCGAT` is 3 or above.
Ans. satisfied

Qu. Textbook exercise: given the entry `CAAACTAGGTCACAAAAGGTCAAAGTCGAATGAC` , state whether its PBM binding z-score is greater than or equal to 3.
Ans. satisfied

Qu. Is the recorded value of PBM binding z-score equal to or greater than 3 for this sequence? `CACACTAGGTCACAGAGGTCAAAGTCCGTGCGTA`
Ans. satisfied

----------
Test system: PPARg:RXRa (NR concentration 180 nM, RXRa partner concentration 90 nM)
Assay: PBM binding z-score (relative to random genomic background probes); higher = stronger binding; sequences stand for … in GC…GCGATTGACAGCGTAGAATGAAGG
Definition: the class of an entry is the range in b0: < 2; b1: ≥ 2 and < 6; b2: ≥ 6 that contains its PBM binding z-score.

Example cases with answers are listed next.
[[record]]
sequence_text = "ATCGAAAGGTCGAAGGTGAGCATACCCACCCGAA"
discrete_label = "b1"

[[record]]
sequence_text = "TCTCGGAGGTCACGAAAGGTCAGAGCTCGACATC"
discrete_label = "b2"

[[record]]
sequence_text = "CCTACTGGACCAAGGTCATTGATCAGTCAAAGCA"
discrete_label = "b1"

[[record]]
sequence_text = "CAAACAAGGTCAAAGGTCAAAGTCGAGCCAACCA"
discrete_label = "b2"

[[record]]
sequence_text = "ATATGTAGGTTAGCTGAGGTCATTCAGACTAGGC"
discrete_label = "b1"


Qu. Which PBM binding z-score category applies to `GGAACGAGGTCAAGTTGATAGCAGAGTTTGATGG` here?
Ans. b2

Qu. Please let me know in which category the item `TAGCCTAGGTCATTCAGGGGCCAGCATAGAAAGC` belongs.
Ans. b1

Qu. Please report the category associated with `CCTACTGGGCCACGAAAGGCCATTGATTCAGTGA` , nothing else.
Ans. b0

Qu. Determine which band this sequence sits in: `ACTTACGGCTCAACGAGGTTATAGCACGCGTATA`
Ans. b0

Qu. // bin(item) where item = `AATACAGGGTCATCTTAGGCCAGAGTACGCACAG`
Ans. b2

Qu. Band for `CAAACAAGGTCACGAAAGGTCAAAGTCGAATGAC` ?
Ans. b2

Qu. Lab note: which band did `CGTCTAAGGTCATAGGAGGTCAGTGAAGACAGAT` land in?
Ans. b2

Qu. Which bin should I file `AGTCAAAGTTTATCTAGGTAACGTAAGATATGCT` under?
Ans. b1

----------
System: PPARg homodimer (NR concentration 180 nM)
Assay: PBM binding z-score (relative to random genomic background probes); higher = stronger binding; sequences stand for … in GC…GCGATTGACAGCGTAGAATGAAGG
quantity-name: PBM binding z-score
# respond with the number and nothing more

[[record]]
sequence_text = "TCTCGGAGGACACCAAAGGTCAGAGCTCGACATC"
recorded_value = 3.42

[[record]]
sequence_text = "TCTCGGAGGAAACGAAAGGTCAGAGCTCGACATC"
recorded_value = 2.23

[[record]]
sequence_text = "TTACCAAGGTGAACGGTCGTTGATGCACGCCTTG"
recorded_value = 0.997

[[record]]
sequence_text = "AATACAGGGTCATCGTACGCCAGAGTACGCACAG"
recorded_value = 3.42

[[record]]
sequence_text = "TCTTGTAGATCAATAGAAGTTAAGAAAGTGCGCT"
recorded_value = 0.551


Qu. Recall the recorded PBM binding z-score for `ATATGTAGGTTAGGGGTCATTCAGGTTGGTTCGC` with PPARg homodimer (NR concentration 180 nM) and state it.
Ans. 5.22

Qu. Record `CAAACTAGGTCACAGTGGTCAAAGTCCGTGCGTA` : what is its PBM binding z-score with PPARg homodimer (NR concentration 180 nM)?
Ans. 2.21

----------
Test system: RXRa homodimer (NR concentration 180 nM)
Test: PBM binding z-score (relative to random genomic background probes); higher = stronger binding; sequences stand for … in GC…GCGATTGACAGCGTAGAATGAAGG
// thresholds for PBM binding z-score classes: bucket A: < 3; bucket B: ≥ 3 and < 6; bucket C: ≥ 6

Qu. Looking at `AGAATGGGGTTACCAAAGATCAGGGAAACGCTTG` , which class would you pick?
Ans. bucket B

Qu. Quick check: band for `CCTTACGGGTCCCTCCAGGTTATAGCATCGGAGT`
Ans. bucket A

Qu. Kindly identify the class of `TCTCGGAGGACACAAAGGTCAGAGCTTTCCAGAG` .
Ans. bucket B

----------
Tested on: RARb homodimer (NR concentration 270 nM)
Assay: PBM binding z-score (relative to random genomic background probes); higher = stronger binding; sequences stand for … in GC…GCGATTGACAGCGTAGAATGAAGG
# binarize PBM binding z-score: threshold 4 inclusive, high side Met, low side Not met

Some solved cases for reference:
[[record]]
sequence_text = "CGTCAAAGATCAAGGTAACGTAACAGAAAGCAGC"
discrete_label = "Not met"

[[record]]
sequence_text = "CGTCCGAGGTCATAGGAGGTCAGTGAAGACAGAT"
discrete_label = "Met"

[[record]]
sequence_text = "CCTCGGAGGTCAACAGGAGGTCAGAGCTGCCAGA"
discrete_label = "Met"

[[record]]
sequence_text = "TCTAGTAGGTCAAAGGTCACACACTCGAAATGCG"
discrete_label = "Met"

[[record]]
sequence_text = "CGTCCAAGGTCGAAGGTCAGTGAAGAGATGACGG"
discrete_label = "Not met"

[[record]]
sequence_text = "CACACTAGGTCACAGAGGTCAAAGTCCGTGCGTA"
discrete_label = "Met"


Qu. Reported PBM binding z-score reaches at least 4 for `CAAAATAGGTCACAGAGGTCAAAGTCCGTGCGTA` ?
Ans. Met

Qu. PBM binding z-score >= 4 for `TTACCAAGGTCAAAGGTCGTTGATGCACGCCTTG` ?
Ans. Met

Qu. Identify whether the reported PBM binding z-score of the following sequence is 4 or greater: `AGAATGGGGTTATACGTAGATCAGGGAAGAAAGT`
Ans. Not met

Qu. Determine whether this sequence has PBM binding z-score no lower than 4: `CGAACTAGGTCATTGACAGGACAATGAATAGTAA`
Ans. Not met

Qu. Check if PBM binding z-score >= 4 (inclusive). Item: `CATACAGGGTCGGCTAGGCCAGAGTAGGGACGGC`
Ans. Not met

Qu. Record `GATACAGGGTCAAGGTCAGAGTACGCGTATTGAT` ; criterion: PBM binding z-score no lower than 4. Met?
Ans. Met

Qu. Does the sequence `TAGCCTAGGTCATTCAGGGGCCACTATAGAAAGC` have recorded PBM binding z-score that is 4 or more?
Ans. Not met

Qu. Is PBM binding z-score at least 4? Consider `GCTTAGGGGTCAAAGGTTATAGCATGAATAGAAT`
Ans. Met

Qu. Can `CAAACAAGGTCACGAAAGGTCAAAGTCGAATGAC` be said to have PBM binding z-score at or above 4?
Ans. Met

Qu. API: above_or_equal(metric=PBM binding z-score, cutoff=4) for item `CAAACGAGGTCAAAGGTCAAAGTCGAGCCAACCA`
Ans. Met

Qu. Threshold query (PBM binding z-score >= 4) on `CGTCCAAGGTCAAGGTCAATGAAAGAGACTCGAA`
Ans. Met

Qu. Is the recorded value of PBM binding z-score equal to or greater than 4 for this sequence? `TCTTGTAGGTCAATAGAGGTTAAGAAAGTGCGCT`
Ans. Not met

Qu. Is it the case that `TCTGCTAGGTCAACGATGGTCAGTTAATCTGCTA` has PBM binding z-score reaching or exceeding 4?
Ans. Not met

Qu. # check: PBM binding z-score of `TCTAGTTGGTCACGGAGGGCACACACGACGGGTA` is greater than or equal to 4
Ans. Not met

Qu. I'd appreciate it if you could say whether `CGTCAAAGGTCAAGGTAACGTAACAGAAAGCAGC` has PBM binding z-score at least equal to 4.
Ans. Met

Qu. # check: PBM binding z-score of `CGTCAAAGGTCAAGGTCAGTGAAAGAGACTCGAA` is greater than or equal to 4
Ans. Met

Qu. Check this sequence for PBM binding z-score at or above 4: `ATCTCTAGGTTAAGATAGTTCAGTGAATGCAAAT`
Ans. Not met

Qu. Identify whether the reported PBM binding z-score of the following sequence is 4 or greater: `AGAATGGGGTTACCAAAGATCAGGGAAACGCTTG`
Ans. Not met
